Reported values of activation at 0.1 µM for individual entries
- Target under test: glucocerebrosidase (Gcase) (Homo sapiens)
- Construct: micellar solution containing 10 nM GCase and 100 nM saposin C
- Sequence (P04062 40-536): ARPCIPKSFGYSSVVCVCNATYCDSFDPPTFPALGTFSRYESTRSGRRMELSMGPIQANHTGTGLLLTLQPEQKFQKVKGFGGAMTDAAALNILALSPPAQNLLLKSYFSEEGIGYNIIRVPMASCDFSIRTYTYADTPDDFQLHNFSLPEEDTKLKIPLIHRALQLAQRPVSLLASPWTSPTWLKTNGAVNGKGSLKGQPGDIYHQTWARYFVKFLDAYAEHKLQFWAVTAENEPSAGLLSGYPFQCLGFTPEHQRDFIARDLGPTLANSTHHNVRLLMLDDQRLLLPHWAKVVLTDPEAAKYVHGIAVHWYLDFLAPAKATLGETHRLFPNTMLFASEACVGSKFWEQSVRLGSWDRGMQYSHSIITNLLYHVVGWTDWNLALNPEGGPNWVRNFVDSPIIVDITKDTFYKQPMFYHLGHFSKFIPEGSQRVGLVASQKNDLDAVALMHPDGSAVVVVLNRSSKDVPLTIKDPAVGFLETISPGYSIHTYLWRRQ
- Protocol notes: Glucocerebrosidase (Gcase) activation assay, 4-methylumbelliferyl-beta-D-glucopyranoside substrate, fluorescence readout
- Type: biochemical
- Details: test compound at 0.1 μM; read-out: Percent Gcase Activation, 0.1 μM Test Compound
- Method: The ability of exemplary compounds to activate glucocerebrosidase (Gcase) was measured. A 484 μL aliquot of a 1.0 mg/mL solution of phosphatidylserine (PS) (Sigma P7769) in chloroform was evaporated under a stream of nitrogen for 1 hour. The lipid film was dissolved over 4 minutes of vigorous vortexing in 40 mL of 176 mM K2HPO4/50 mM citric acid (pH 4.7) containing 7.5 μL of triton X-100, resulting in a mixed micellar preparation with a composition of 0.32 mM triton and 0.37 mol % PS. […]

{"columns": ["Compound", "Target under test", "activation at 0.1 µM"],
 "data": [
  ["CCCCO[C@H]1CC[C@H](NC(=O)c2ccn3c(C)cc(NC)nc23)CC1 [III-66]", "glucocerebrosidase (Gcase) (Homo sapiens)", "10 to 20%"],
  ["Cc1cc(C)n2ccc(C(=O)N[C@@H]3CCCc4ccccc43)c2n1 [III-168]", "glucocerebrosidase (Gcase) (Homo sapiens)", "> 20%"],
  ["[2H]c1c(C([2H])([2H])[2H])nc2c(C(=O)NC3(C)CCOc4ccccc43)cc([2H])n2c1C([2H])([2H])[2H] (stereo not drawn) [III-159]", "glucocerebrosidase (Gcase) (Homo sapiens)", "> 20%"],
  ["[2H]C1(NC(=O)c2ccn3c(COC)cc(C(C)C)nc23)CCOc2cc(F)c(F)cc21 (stereo not drawn) [III-59]", "glucocerebrosidase (Gcase) (Homo sapiens)", "10 to 20%"]
]}

Prompt line: Report activation at 0.1 µM, nothing else, for this compound: Cc1cc(C)n2ccc(C(=O)Nc3ccc(-c4cocn4)cc3)c2n1 [III-1]
Response line: > 20%

Prompt line: Query activation at 0.1 µM for COCc1cc(C(C)C)n2ccc(C(=O)NC3(C)CCCc4ncncc43)c2n1 (stereo not drawn) [III-32]
Response line: < 10%
